Ref: ChEMBL document CHEMBL4804281

# measured on: Interleukin-1 receptor-associated kinase 1 (Homo sapiens) (UniProt P51617)
# Sequence (P51617 whole entry, looked up, the tested form may be a part): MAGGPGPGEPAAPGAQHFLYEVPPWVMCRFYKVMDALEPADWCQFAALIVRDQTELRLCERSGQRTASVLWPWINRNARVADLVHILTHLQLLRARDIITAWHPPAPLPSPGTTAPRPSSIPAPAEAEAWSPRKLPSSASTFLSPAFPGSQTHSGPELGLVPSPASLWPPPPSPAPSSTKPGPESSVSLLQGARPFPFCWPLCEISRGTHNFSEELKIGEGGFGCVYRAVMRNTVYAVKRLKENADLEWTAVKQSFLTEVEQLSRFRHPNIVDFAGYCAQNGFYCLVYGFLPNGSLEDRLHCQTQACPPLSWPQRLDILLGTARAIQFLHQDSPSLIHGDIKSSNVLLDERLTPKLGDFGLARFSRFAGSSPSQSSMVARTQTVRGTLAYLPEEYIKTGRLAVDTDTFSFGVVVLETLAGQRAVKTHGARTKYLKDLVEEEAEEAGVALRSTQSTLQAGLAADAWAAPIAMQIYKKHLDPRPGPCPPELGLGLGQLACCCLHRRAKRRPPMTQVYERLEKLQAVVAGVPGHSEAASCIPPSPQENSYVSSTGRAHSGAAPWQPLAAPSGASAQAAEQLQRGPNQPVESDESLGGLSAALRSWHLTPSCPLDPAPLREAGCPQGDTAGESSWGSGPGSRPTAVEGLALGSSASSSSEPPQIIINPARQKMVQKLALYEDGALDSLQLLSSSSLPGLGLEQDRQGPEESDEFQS
# experiment summary: Inhibition of wild-type human partial length IRAK1 (R194 to S712 residues) expressed in mammalian expression system by Kinomescan method
assay endpoint: Kd (nM)

given smiles	assay endpoint	measurement unit	observed
Nc1ncc(-c2cc([N+](=O)[O-])ccc2F)cc1-c1ccc2c(c1)CCNC2=O	Kd	nM	110

###

Item-by-item account of pIC50
# measured on: Serine/threonine-protein kinase 4 (Homo sapiens) (UniProt Q13043)
# Sequence (Q13043 whole entry): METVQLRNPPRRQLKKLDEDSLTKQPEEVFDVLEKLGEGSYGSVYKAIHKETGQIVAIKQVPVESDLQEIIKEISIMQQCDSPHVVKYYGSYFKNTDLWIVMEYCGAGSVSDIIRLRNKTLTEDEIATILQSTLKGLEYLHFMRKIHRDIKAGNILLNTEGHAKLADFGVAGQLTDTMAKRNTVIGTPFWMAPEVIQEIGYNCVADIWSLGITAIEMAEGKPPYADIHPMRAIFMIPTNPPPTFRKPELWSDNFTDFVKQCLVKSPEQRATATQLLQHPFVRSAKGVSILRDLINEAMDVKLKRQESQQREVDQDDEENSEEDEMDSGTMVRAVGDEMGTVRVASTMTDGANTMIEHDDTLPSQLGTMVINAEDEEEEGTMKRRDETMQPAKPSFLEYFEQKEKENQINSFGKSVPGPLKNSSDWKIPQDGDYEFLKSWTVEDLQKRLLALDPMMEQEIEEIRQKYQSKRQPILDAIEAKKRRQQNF
# experiment summary: Inhibition of STK4 (unknown origin) using fluorescein-labelled Ser/Thr-07 peptide as substrate incubated for 1 hr in presence of ATP at Km concentration by Z-LYTE assay
pIC50: −log10 of the molar value.
assay endpoint: pIC50

given smiles	assay endpoint	observed
Nc1ncc(-c2ccc(NS(=O)(=O)C3CC3)cc2OC2CCCC2)cc1-c1ccc2c(c1)CCNC2=O	pIC50	> 7.40
N#Cc1cc(-c2cc(-c3cc([N+](=O)[O-])ccc3F)cnc2N)ccc1O	pIC50	6.70
Nc1ncc(-c2scnc2Cl)cc1-c1ccc2c(c1)CCNC2=O	pIC50	7.40
Nc1ncc(-c2cc(F)ccc2[N+](=O)[O-])cc1-c1ccc2c(c1)CCNC2=O	pIC50	< 6.05
Nc1ncc(-c2cccc(S(N)(=O)=O)c2)cc1-c1ccc2c(c1)CCNC2=O	pIC50	6.70
Nc1ncc(-c2ccc(NS(=O)(=O)C3CC3)cc2F)cc1-c1ccc2c(c1)CCNC2=O	pIC50	> 7.40
Cc1cc(N2CCOCC2)cc2[nH]c(-c3c(NC[C@@H](O)c4cccc(Cl)c4)cc[nH]c3=O)nc12	pIC50	7.40
Nc1ncc(-c2cc([N+](=O)[O-])ccc2Cl)cc1-c1ccc2c(c1)CCNC2=O	pIC50	< 6.05
Nc1ncc(-c2cc([N+](=O)[O-])ccc2F)cc1-c1ccc2c(c1)CCNC2=O	pIC50	> 7.40
C#Cc1cc(F)c(-c2cnc(N)c(-c3ccc4c(c3)CCNC4=O)c2)cc1[N+](=O)[O-]	pIC50	7.40
COc1cc(S(=O)(=O)N(C)C2CC2)ccc1-c1cnc(N)c(-c2ccc3c(c2)CCNC3=O)c1	pIC50	> 7.40
CCOc1cc(S(=O)(=O)N(C)C2CC2)ccc1-c1cnc(N)c(-c2ccc3c(c2)CCNC3=O)c1	pIC50	> 7.40
Nc1ncc(-c2ccc(F)c3ncsc23)cc1-c1ccc2c(c1)CCNC2=O	pIC50	> 7.40
CC(C)Oc1cc(S(=O)(=O)N(C)C2CC2)ccc1-c1cnc(N)c(-c2ccc3c(c2)CCNC3=O)c1	pIC50	> 7.40
Nc1ncc(-c2cccc3ncsc23)cc1-c1ccc2c(c1)CCNC2=O	pIC50	> 7.40
CN(C1CC1)S(=O)(=O)c1ccc(-c2cnc(N)c(-c3ccc4c(=O)[nH]cnc4c3)c2)c(F)c1	pIC50	> 7.40
CC(C)Oc1cc(S(=O)(=O)N(C)C2CC2)ccc1-c1cnc(N)c(-c2ccc3c(c2)CNC3=O)c1	pIC50	> 7.40
Nc1ncc(-c2cccc(-c3nccs3)c2)cc1-c1ccc2c(c1)CCNC2=O	pIC50	> 7.40
CN1CCc2cc(-c3cc(-c4ccc(S(=O)(=O)N(C)C5CC5)cc4F)cnc3N)ccc2C1=O	pIC50	> 7.40
Nc1ncc(-c2cccc3sccc23)cc1-c1ccc2c(c1)CCNC2=O	pIC50	> 7.40
Nc1ncc(-c2cccc(NS(=O)(=O)C3CC3)c2)cc1-c1ccc2c(c1)CCNC2=O	pIC50	> 7.40

###

Item-by-item account of inhibition
# measured on: Tyrosine-protein kinase ABL1 (Homo sapiens) (UniProt P00519)
# experiment summary: Inhibition of ABL in human NCI-H929 cells at 10 uM by mass spectroscopic analysis relative to control
# Assay type: cell-based
assay endpoint: inhibition (%)

given smiles	measurement unit	observed
Nc1ncc(-c2ccc(NS(=O)(=O)C3CC3)cc2F)cc1-c1ccc2c(c1)CCNC2=O	%	0
Nc1ncc(-c2cccc3ncsc23)cc1-c1ccc2c(c1)CCNC2=O	%	50
Nc1ncc(-c2ccc(NS(=O)(=O)C3CC3)cc2OC2CCCCC2)cc1-c1ccc2c(c1)CCNC2=O	%	0
COc1cc(NS(=O)(=O)C2CC2)ccc1-c1cnc(N)c(-c2ccc3c(c2)CCNC3=O)c1	%	0
CN(C1CC1)S(=O)(=O)c1ccc(-c2cnc(N)c(-c3ccc4c(c3)CCNC4=O)c2)c(F)c1	%	0

###

# measured on: Phosphatidylinositol 4-kinase alpha (Homo sapiens) (UniProt P42356)
# Sequence (P42356 whole entry, looked up): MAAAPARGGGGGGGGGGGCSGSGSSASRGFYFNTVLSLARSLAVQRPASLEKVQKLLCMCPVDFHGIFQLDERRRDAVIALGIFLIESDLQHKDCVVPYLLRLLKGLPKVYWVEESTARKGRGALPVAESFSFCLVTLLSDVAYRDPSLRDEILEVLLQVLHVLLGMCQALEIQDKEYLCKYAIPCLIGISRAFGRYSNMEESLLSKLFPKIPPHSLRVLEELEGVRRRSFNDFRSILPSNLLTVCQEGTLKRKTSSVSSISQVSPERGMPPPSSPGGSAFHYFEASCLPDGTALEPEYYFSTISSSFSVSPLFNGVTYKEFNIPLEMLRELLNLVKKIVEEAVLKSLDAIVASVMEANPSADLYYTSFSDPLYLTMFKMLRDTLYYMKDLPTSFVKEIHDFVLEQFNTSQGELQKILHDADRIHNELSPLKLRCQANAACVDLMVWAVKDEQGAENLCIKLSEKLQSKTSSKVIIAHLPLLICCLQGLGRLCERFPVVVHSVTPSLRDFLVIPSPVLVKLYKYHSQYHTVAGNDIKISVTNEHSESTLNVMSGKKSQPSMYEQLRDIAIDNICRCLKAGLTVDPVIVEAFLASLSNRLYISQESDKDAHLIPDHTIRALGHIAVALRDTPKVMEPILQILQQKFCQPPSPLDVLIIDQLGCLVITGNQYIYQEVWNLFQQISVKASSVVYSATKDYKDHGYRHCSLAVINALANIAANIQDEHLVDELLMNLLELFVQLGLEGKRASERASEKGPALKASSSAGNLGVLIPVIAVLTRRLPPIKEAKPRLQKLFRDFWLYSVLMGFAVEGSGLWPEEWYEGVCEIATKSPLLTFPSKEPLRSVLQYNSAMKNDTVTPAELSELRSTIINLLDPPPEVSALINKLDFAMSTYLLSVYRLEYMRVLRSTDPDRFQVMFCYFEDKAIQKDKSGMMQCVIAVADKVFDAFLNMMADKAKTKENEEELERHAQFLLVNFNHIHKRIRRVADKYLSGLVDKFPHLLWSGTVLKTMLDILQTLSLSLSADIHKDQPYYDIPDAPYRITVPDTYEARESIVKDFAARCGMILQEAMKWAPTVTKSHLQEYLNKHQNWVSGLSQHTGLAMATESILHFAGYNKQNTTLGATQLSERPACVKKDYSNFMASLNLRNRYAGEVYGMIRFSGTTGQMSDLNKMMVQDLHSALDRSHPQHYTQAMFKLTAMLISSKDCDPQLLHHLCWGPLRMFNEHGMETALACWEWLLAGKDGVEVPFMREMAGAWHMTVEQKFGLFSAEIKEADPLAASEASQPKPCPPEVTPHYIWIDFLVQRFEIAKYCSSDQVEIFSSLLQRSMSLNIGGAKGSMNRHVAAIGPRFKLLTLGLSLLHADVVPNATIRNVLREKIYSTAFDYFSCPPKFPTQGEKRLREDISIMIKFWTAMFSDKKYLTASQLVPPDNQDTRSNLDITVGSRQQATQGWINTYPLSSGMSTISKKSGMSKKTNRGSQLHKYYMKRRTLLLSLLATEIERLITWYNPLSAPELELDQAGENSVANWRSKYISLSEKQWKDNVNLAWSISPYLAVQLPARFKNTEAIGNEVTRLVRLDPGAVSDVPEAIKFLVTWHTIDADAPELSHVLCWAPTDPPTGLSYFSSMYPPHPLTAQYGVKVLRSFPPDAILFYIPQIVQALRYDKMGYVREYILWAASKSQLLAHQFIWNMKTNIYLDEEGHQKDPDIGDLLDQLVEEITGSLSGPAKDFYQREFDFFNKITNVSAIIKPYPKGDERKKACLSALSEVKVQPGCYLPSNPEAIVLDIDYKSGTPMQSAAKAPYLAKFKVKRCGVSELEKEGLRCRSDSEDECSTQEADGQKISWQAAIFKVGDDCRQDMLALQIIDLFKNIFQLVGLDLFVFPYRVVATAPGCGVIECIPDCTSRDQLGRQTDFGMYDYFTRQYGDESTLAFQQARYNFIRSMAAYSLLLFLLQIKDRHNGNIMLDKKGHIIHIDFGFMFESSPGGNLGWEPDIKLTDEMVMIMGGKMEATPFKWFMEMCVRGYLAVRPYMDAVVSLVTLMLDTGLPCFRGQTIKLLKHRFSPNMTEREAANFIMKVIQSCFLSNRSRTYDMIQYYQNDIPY
# experiment summary: Inhibition of PI4KA in human NCI-H929 cells at 10 uM by mass spectroscopic analysis relative to control
# Assay type: cell-based
Item-by-item account of inhibition
assay endpoint: inhibition

given smiles	assay endpoint	observed
Nc1ncc(-c2ccc(NS(=O)(=O)C3CC3)cc2OC2CCCCC2)cc1-c1ccc2c(c1)CCNC2=O	inhibition	0%
Nc1ncc(-c2cccc([N+](=O)[O-])c2F)cc1-c1ccc2c(c1)CCNC2=O	inhibition	0%
COc1cc(NS(=O)(=O)C2CC2)ccc1-c1cnc(N)c(-c2ccc3c(c2)CCNC3=O)c1	inhibition	0%
CN(C1CC1)S(=O)(=O)c1ccc(-c2cnc(N)c(-c3ccc4c(c3)CCNC4=O)c2)c(F)c1	inhibition	0%
Nc1ncc(-c2cccc3ncsc23)cc1-c1ccc2c(c1)CCNC2=O	inhibition	0%
Nc1ncc(-c2ccc(NS(=O)(=O)C3CC3)cc2F)cc1-c1ccc2c(c1)CCNC2=O	inhibition	0%

###

# measured on: MAP kinase-activated protein kinase 2 (Homo sapiens)
# experiment summary: Inhibition of MAPKAPK2 in human NCI-H929 cells at 10 uM by mass spectroscopic analysis relative to control
# Type: cell-based

given smiles	measured on	inhibition
Nc1ncc(-c2cccc([N+](=O)[O-])c2F)cc1-c1ccc2c(c1)CCNC2=O	MAP kinase-activated protein kinase 2 (Homo sapiens)	0%
Nc1ncc(-c2cccc3ncsc23)cc1-c1ccc2c(c1)CCNC2=O	MAP kinase-activated protein kinase 2 (Homo sapiens)	0%
Nc1ncc(-c2ccc(NS(=O)(=O)C3CC3)cc2F)cc1-c1ccc2c(c1)CCNC2=O	MAP kinase-activated protein kinase 2 (Homo sapiens)	0%
COc1cc(NS(=O)(=O)C2CC2)ccc1-c1cnc(N)c(-c2ccc3c(c2)CCNC3=O)c1	MAP kinase-activated protein kinase 2 (Homo sapiens)	0%
CN(C1CC1)S(=O)(=O)c1ccc(-c2cnc(N)c(-c3ccc4c(c3)CCNC4=O)c2)c(F)c1	MAP kinase-activated protein kinase 2 (Homo sapiens)	0%
Nc1ncc(-c2ccc(NS(=O)(=O)C3CC3)cc2OC2CCCCC2)cc1-c1ccc2c(c1)CCNC2=O	MAP kinase-activated protein kinase 2 (Homo sapiens)	0%

###

Item-by-item account of inhibition
# measured on: Proto-oncogene tyrosine-protein kinase Src (Homo sapiens) (UniProt P12931)
# Sequence (P12931 2-536 limits assumed): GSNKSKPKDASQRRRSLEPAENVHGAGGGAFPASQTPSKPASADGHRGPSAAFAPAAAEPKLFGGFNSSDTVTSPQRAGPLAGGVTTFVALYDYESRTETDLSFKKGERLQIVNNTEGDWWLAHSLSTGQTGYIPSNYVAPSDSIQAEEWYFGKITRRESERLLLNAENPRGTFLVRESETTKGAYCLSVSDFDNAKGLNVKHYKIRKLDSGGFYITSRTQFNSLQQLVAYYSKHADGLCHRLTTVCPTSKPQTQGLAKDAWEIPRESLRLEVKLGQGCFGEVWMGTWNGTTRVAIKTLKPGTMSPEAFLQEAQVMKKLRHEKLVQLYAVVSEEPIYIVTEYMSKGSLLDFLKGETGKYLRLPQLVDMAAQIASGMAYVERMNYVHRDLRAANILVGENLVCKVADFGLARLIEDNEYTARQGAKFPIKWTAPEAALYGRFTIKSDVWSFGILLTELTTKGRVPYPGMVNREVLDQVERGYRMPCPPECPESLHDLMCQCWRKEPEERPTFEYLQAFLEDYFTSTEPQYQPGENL
# experiment summary: Inhibition of SRC in human NCI-H929 cells at 10 uM by mass spectroscopic analysis relative to control
# Format: cell-based
assay endpoint: inhibition (%)

given smiles	observed
Nc1ncc(-c2ccc(NS(=O)(=O)C3CC3)cc2F)cc1-c1ccc2c(c1)CCNC2=O	0
COc1cc(NS(=O)(=O)C2CC2)ccc1-c1cnc(N)c(-c2ccc3c(c2)CCNC3=O)c1	0
Nc1ncc(-c2cccc3ncsc23)cc1-c1ccc2c(c1)CCNC2=O	0
CN(C1CC1)S(=O)(=O)c1ccc(-c2cnc(N)c(-c3ccc4c(c3)CCNC4=O)c2)c(F)c1	0
Nc1ncc(-c2cccc([N+](=O)[O-])c2F)cc1-c1ccc2c(c1)CCNC2=O	0
Nc1ncc(-c2ccc(NS(=O)(=O)C3CC3)cc2OC2CCCCC2)cc1-c1ccc2c(c1)CCNC2=O	0

###

Item-by-item account of inhibition
# measured on: Cyclin-dependent kinase 8 (Homo sapiens) (UniProt P49336)
# Sequence (P49336 whole entry): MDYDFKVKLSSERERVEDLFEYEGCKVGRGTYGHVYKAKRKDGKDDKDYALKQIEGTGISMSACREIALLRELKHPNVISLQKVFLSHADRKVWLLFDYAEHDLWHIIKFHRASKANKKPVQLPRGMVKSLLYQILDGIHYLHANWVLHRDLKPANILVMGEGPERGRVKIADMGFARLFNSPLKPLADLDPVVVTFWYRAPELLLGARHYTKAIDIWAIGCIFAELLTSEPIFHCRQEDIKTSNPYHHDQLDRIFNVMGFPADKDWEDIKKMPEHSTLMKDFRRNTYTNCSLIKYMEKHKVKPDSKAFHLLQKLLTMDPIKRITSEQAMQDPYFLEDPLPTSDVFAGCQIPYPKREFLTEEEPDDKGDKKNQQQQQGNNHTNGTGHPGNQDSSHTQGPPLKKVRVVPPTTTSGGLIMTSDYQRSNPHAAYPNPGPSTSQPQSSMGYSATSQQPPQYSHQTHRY
# experiment summary: Inhibition of CDK8 in human NCI-H929 cells at 10 uM by mass spectroscopic analysis relative to control
# Type: cell-based

given smiles	measured on	inhibition
CN(C1CC1)S(=O)(=O)c1ccc(-c2cnc(N)c(-c3ccc4c(c3)CCNC4=O)c2)c(F)c1	Cyclin-dependent kinase 8 (Homo sapiens) (UniProt P49336)	0%
Nc1ncc(-c2ccc(NS(=O)(=O)C3CC3)cc2F)cc1-c1ccc2c(c1)CCNC2=O	Cyclin-dependent kinase 8 (Homo sapiens) (UniProt P49336)	0%
Nc1ncc(-c2ccc(NS(=O)(=O)C3CC3)cc2OC2CCCCC2)cc1-c1ccc2c(c1)CCNC2=O	Cyclin-dependent kinase 8 (Homo sapiens) (UniProt P49336)	0%
Nc1ncc(-c2cccc3ncsc23)cc1-c1ccc2c(c1)CCNC2=O	Cyclin-dependent kinase 8 (Homo sapiens) (UniProt P49336)	50%
COc1cc(NS(=O)(=O)C2CC2)ccc1-c1cnc(N)c(-c2ccc3c(c2)CCNC3=O)c1	Cyclin-dependent kinase 8 (Homo sapiens) (UniProt P49336)	0%

###

# measured on: Misshapen-like kinase 1 (Homo sapiens) (UniProt Q8N4C8)
# experiment summary: Inhibition of MINK in human NCI-H929 cells at 10 uM by mass spectroscopic analysis relative to control
# Type: cell-based
Item-by-item account of inhibition

given smiles	inhibition
Nc1ncc(-c2cccc3ncsc23)cc1-c1ccc2c(c1)CCNC2=O	> 90%
Nc1ncc(-c2cccc([N+](=O)[O-])c2F)cc1-c1ccc2c(c1)CCNC2=O	> 90%
Nc1ncc(-c2ccc(NS(=O)(=O)C3CC3)cc2OC2CCCCC2)cc1-c1ccc2c(c1)CCNC2=O	50%
CN(C1CC1)S(=O)(=O)c1ccc(-c2cnc(N)c(-c3ccc4c(c3)CCNC4=O)c2)c(F)c1	> 90%
COc1cc(NS(=O)(=O)C2CC2)ccc1-c1cnc(N)c(-c2ccc3c(c2)CCNC3=O)c1	50%
